System: Endothelin receptor type B (Homo sapiens)
Sequence (P24530 whole entry): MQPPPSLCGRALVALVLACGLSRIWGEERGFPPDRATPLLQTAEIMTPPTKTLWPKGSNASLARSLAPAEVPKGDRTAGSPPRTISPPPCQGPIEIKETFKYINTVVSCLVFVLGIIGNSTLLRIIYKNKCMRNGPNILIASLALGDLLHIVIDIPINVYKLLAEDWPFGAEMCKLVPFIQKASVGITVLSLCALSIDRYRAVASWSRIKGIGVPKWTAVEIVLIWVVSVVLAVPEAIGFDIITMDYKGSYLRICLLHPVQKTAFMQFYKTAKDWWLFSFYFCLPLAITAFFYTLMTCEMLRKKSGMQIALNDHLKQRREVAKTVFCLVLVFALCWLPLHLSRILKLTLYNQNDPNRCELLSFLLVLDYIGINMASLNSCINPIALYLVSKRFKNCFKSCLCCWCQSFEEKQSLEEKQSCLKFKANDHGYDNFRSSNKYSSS
Method Summary: Antagonist activity at ETB receptor (unknown origin)
pIC50: −log10 of the molar value.

| Smiles Code | pIC50 |
| --- | --- |
| COc1ccccc1Oc1c(NS(=O)(=O)c2ccc(C(C)C)cc2)nc(C(F)(F)F)nc1OCCO | 6.04 |

###

System: Endothelin-1 receptor (Homo sapiens, UniProt P25101)
Sequence (P25101 whole entry): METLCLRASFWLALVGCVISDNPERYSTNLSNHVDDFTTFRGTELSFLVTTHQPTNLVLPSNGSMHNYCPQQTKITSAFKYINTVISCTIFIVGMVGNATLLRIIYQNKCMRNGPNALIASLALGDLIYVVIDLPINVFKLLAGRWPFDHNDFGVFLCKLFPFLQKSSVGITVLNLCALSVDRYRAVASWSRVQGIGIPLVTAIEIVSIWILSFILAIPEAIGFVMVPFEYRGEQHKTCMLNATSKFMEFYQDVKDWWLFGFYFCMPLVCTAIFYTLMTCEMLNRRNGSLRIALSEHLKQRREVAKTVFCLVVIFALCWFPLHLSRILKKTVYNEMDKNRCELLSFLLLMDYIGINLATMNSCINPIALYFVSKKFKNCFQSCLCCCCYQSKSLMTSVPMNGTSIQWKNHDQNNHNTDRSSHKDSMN
Method Summary: Antagonist activity at human ETA receptor expressed in CHO cells in presence of ET1
Format: cell-based
pIC50: −log10 of the molar value.

| Smiles Code | pIC50 |
| --- | --- |
| CCCNS(=O)(=O)Nc1ncnc(OCCOc2ncc(Br)cn2)c1-c1ccc(Br)cc1 | 8.47 |

Sourced from ChEMBL document CHEMBL4425117
